- assay: Inhibition of cell viability in human adipose stromal cells by CCK8 assay
- Type: toxicity, cell-based
readout name: IC50 (µM)
Answers are plain numbers, in µM.

What value of IC50 has been recorded for this entry: O=c1cnc(Cc2ccccc2)nn1Cc1ccc(Cl)cc1Cl
3.33

* * *

- assay: MRT (0 to infinity) in Sprague-Dawley rat at 25 mg/kg, IG measured for 24 hrs by LC-MS/MS analysis
- Type: ADME, organism-based
- condition info: in vivo, po
readout name: MRT inf (h)
Answers are plain numbers, in h.

What value of MRT inf has been recorded for this entry: O=c1cnc(Cc2ccccc2)nn1Cc1ccc(Cl)cc1Cl
9.27

* * *

- assay: Distribution coefficient, logD of compound by chromatography
- Assay type: physicochemical
- condition info: octanol/water
Would you mind telling me the reported chromatographic logD of each entry?
Answers are plain numbers.

                molecule_smiles  numeric_readout
0  O=c1cnc(-c2ccccc2)nn1C1CCCC1              3.8

Please examine the following record next.
What value of chromatographic logD has been recorded for this entry: O=c1cnc(-c2ccccc2)nn1Cc1ccccc1Cl
4.3

* * *

- System: DU-145
- assay: Inhibition of cell viability in AR-independent human DU-145 cells by Steady-Glo luciferase assay
- Assay type: functional, cell-based
readout name: IC50

What value of IC50 has been recorded for this entry: O=c1cnc(Cc2ccccc2)nn1Cc1ccc(Cl)cc1Cl
1.85 µM

* * *

- assay: MRT (0 to infinity) in Sprague-Dawley rat at 1.8 mg/kg, iv measured for 24 hrs by LC-MS/MS analysis
- Type: ADME, organism-based
- condition info: in vivo
readout name: MRT inf (h)
Give bare numbers, in h.

What value of MRT inf has been recorded for this entry: O=c1cnc(Cc2ccccc2)nn1Cc1ccc(Cl)cc1Cl
7.65

* * *

- assay: AUC (0 to infinity) in Sprague-Dawley rat at 25 mg/kg, IG measured for 24 hrs by LC-MS/MS analysis
- Format: ADME, organism-based
- Parameters: time 24 hrs, dose 25 mg/kg, route ig
- condition info: in vivo, po
readout name: AUC(0-inf) (ng·h/mL)
Numbers only, in ng·h/mL.

What value of AUC(0-inf) has been recorded for this entry: O=c1cnc(Cc2ccccc2)nn1Cc1ccc(Cl)cc1Cl
27500

* * *

- assay: AUC (0 to t) in Sprague-Dawley rat at 1.8 mg/kg, iv measured for 24 hrs by LC-MS/MS analysis
- Assay type: ADME, organism-based
- Design: time 24 hrs, dose 1.8 mg/kg, route iv
- condition info: in vivo
readout name: AUC(0-t) at 24 h

What value of AUC(0-t) at 24 h has been recorded for this entry: O=c1cnc(Cc2ccccc2)nn1Cc1ccc(Cl)cc1Cl
14300 ng·h/mL

* * *

- assay: C0 in Sprague-Dawley rat at 1.8 mg/kg, iv measured for 24 hrs by LC-MS/MS analysis
- Format: ADME, organism-based
- condition info: in vivo
readout name: C0 at 24 h (ng/mL)
One number for each entry, in ng/mL.

What value of C0 at 24 h has been recorded for this entry: O=c1cnc(Cc2ccccc2)nn1Cc1ccc(Cl)cc1Cl
12600

* * *

- assay: Half life in Sprague-Dawley rat at 25 mg/kg, IG measured for 24 hrs by LC-MS/MS analysis
- Assay type: ADME, organism-based
- condition info: in vivo, po
readout name: half-life (min)
Numbers only, in min.

What value of half-life has been recorded for this entry: O=c1cnc(Cc2ccccc2)nn1Cc1ccc(Cl)cc1Cl
275
